Attribution: ChEMBL document CHEMBL1129691

# Tested on: Nucleic Acid
# method_notes: Temperature (delta Tm) for DNA triplex to duplex and single stranded transitions [Poly(dT.dA.dT) to Poly(dA.dT) and Poly(dT)]
# Assay type: nucleic-acid assay
Below, each of the molecules is paired with its reported ΔTm value.
Answer in °C, number only, no unit symbol.

CN(C)CCNc1cc(-c2ccc3c(ccc4ccccc43)c2)nc2ccccc12 : 35.3
Cc1ccc2cc(-c3cc(N(C)CCN(C)C)c4ccccc4n3)ccc2c1 : 19
CN(C)CCNc1cc(-c2ccc3c(c2)Nc2ccccc2S3)nc2ccccc12 : 33.1

ΔTm reported for this molecule CN(C)CCN(C)c1cc(-c2cccs2)nc2ccccc12 : 3

ΔTm reported for this molecule CN(C)CCSc1cc(-c2ccc3ccccc3c2)nc2ccccc12 : 18.6

ΔTm reported for this molecule Cc1ccc2cc(-c3cc(N4CCN(C)CC4)c4ccccc4n3)ccc2c1 : 15.5

ΔTm reported for this molecule CN(C)CCNc1cc(-c2ccc3ccccc3c2)nc2ccccc12 : 35.6

ΔTm reported for this molecule CN(C)CCNc1cc(-c2cccc3ccccc23)nc2ccccc12 : 1.9

ΔTm reported for this molecule CNCCN(C)c1cc(-c2ccc3c(c2)Nc2ccccc2S3)nc2ccccc12 : 20.8

ΔTm reported for this molecule CN1CCN(c2cc(-c3ccccc3)nc3ccccc23)CC1 : 3.2

ΔTm reported for this molecule CN(C)CCN(C)C(=O)c1cc(-c2ccc3ccccc3c2)nc2ccccc12 : 2.1
